MEASUREMENT TARGET: KDR (phospho-KDR, VEGF165-stimulated HUVEC cells) (Homo sapiens (Human))
Sequence (P35968 20-1356): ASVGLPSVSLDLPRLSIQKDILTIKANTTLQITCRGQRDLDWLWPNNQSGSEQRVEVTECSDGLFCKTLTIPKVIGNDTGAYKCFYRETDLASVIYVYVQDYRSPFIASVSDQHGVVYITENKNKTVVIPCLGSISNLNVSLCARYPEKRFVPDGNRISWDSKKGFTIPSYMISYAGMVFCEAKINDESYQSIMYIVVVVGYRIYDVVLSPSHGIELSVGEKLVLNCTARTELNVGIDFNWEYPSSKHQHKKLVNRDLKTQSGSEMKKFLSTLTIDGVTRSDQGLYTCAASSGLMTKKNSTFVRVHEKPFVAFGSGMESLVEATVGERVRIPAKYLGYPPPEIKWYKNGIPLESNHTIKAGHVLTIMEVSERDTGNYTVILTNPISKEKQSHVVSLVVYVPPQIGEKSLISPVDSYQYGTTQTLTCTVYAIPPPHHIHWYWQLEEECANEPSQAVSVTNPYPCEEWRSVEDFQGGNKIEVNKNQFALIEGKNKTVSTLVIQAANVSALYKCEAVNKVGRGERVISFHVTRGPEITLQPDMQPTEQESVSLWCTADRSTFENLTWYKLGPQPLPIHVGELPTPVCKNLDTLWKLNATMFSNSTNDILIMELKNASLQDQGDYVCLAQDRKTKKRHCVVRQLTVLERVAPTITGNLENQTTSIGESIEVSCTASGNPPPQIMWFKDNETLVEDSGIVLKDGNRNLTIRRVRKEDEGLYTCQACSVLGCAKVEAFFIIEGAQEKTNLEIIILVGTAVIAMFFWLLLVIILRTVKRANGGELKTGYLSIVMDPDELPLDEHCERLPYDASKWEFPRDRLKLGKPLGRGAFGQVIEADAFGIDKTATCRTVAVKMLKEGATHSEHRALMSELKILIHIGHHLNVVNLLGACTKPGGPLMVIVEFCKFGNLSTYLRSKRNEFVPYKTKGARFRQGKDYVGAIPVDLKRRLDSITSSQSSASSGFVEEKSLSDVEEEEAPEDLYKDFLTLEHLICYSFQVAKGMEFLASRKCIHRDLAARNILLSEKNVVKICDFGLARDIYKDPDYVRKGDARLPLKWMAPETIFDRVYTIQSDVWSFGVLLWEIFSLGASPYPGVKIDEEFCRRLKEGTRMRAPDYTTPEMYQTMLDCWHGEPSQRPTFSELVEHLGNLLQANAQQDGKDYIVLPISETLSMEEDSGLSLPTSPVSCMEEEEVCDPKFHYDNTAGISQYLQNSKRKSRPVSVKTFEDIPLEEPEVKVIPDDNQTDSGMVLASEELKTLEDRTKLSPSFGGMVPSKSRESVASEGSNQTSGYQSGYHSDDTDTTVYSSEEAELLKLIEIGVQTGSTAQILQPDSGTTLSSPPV
EXPERIMENT NOTES: KDR autophosphorylation ELISA in HUVEC cells (Example G)
Format: cell-based
MEASUREMENT CONTEXT: cellular activity; KDR autophosphorylation ELISA in HUVEC cells
pIC50: −log10 of the molar value.
Recorded pIC50, one value per entry.

# STRUCTURE, MEASUREMENT TARGET, pIC50
records = [
    ("COc1cc2nccc(Oc3ccc(NC(=O)c4cn(C)cc(-c5ccc(F)cc5)c4=O)cc3F)c2nc1OC", "KDR (phospho-KDR, VEGF165-stimulated HUVEC cells) (Homo sapiens (Human))", "> 7.00"),
    ("COc1cc2nccc(Oc3ccc(NC(=O)c4cn(C)c(C(=O)O)c(-c5ccc(F)cc5)c4=O)cc3F)c2nc1OC", "KDR (phospho-KDR, VEGF165-stimulated HUVEC cells) (Homo sapiens (Human))", "< 6.52"),
    ("COc1cnc2c(Oc3ccc(NC(=O)c4c(C)c(F)c(C)n(-c5ccc(F)cc5)c4=O)cc3F)ccnc2c1", "KDR (phospho-KDR, VEGF165-stimulated HUVEC cells) (Homo sapiens (Human))", "6.52 to 7.00"),
    ("COc1cc2nccc(Oc3ccc(NC(=O)c4c(C)c(C)c(C)n(-c5ccc(F)cc5)c4=O)cc3)c2nc1OC", "KDR (phospho-KDR, VEGF165-stimulated HUVEC cells) (Homo sapiens (Human))", "> 7.00"),
    ("CCn1cc(C(=O)Nc2ccc(Oc3ccnc4cc(OC)c(OC)nc34)c(F)c2)c(=O)c(-c2ccc(F)cc2C)c1CO", "KDR (phospho-KDR, VEGF165-stimulated HUVEC cells) (Homo sapiens (Human))", "6.52 to 7.00"),
    ("COCc1nc(C)c(-c2ccc(F)cc2)c(O)c1C(=O)Nc1ccc(Oc2ccnc3cc(OC)c(OC)nc23)c(F)c1", "KDR (phospho-KDR, VEGF165-stimulated HUVEC cells) (Homo sapiens (Human))", "> 7.00"),
    ("COc1cnc2c(Oc3ccc(NC(=O)c4ccc(C)n(-c5ccc(F)cc5C)c4=O)cc3)ccnc2c1", "KDR (phospho-KDR, VEGF165-stimulated HUVEC cells) (Homo sapiens (Human))", "> 7.00"),
    ("COc1cnc2c(Oc3ccc(NC(=O)c4cncc(-c5ccc(F)cc5)c4O)cc3)ccnc2c1", "KDR (phospho-KDR, VEGF165-stimulated HUVEC cells) (Homo sapiens (Human))", "> 7.00"),
    ("COc1cnc2c(Oc3ccc(NC(=O)c4c(C)nc(C)c(-c5ccc(OC)c(F)c5)c4O)cc3F)ccnc2c1", "KDR (phospho-KDR, VEGF165-stimulated HUVEC cells) (Homo sapiens (Human))", "> 7.00"),
    ("CCOc1nc2c(Oc3ccc(NC(=O)c4c(C)ncc(-c5ccc(F)cc5)c4O)cc3F)ccnc2cc1OC", "KDR (phospho-KDR, VEGF165-stimulated HUVEC cells) (Homo sapiens (Human))", "> 7.00"),
    ("COc1cc2nccc(Oc3ccc(NC(=O)c4c(C)c(C)nn(-c5ccc(F)cc5)c4=O)cc3F)c2nc1OC", "KDR (phospho-KDR, VEGF165-stimulated HUVEC cells) (Homo sapiens (Human))", "6.52 to 7.00"),
    ("COc1cc2nccc(Oc3ccc(NC(=O)c4cn(C)c(C)c(-c5ccc(F)cc5)c4=O)cc3Cl)c2nc1OC", "KDR (phospho-KDR, VEGF165-stimulated HUVEC cells) (Homo sapiens (Human))", "> 7.00"),
    ("COc1cnc2c(Oc3ccc(NC(=O)c4cn(C(F)F)c(C)c(-c5ccc(F)cc5)c4=O)cc3)ccnc2c1", "KDR (phospho-KDR, VEGF165-stimulated HUVEC cells) (Homo sapiens (Human))", "< 6.52"),
    ("COc1ccc2nccc(Oc3ccc(NC(=O)c4c(C)ncn(-c5ccc(F)cc5)c4=O)cc3F)c2n1", "KDR (phospho-KDR, VEGF165-stimulated HUVEC cells) (Homo sapiens (Human))", "6.52 to 7.00"),
    ("COc1cc2nccc(Oc3ccc(NC(=O)c4c(C)n(CC(F)(F)F)cc(-c5ccc(F)cc5)c4=O)cc3)c2nc1OC", "KDR (phospho-KDR, VEGF165-stimulated HUVEC cells) (Homo sapiens (Human))", "< 6.52"),
    ("COc1cc2nccc(Oc3ccc(NC(=O)c4cn(C5(C)COC5)cc(-c5ccc(F)cc5)c4=O)cc3F)c2cc1OC", "KDR (phospho-KDR, VEGF165-stimulated HUVEC cells) (Homo sapiens (Human))", "< 6.52"),
    ("CCc1nc(C)c(-c2ccc(F)cc2)c(O)c1C(=O)Nc1ccc(Oc2ccnc3ccc(OC)nc23)c(F)c1", "KDR (phospho-KDR, VEGF165-stimulated HUVEC cells) (Homo sapiens (Human))", "> 7.00"),
    ("C=C(C)c1cnc2c(Oc3ccc(NC(=O)c4cnc(C)c(-c5ccc(F)cc5)c4O)cc3)ccnc2c1", "KDR (phospho-KDR, VEGF165-stimulated HUVEC cells) (Homo sapiens (Human))", "> 7.00"),
    ("COc1cc2nccc(Oc3ccc(NC(=O)c4c(C)cc(C)n(-c5ccc(F)cc5)c4=O)cc3F)c2nc1OC", "KDR (phospho-KDR, VEGF165-stimulated HUVEC cells) (Homo sapiens (Human))", "> 7.00"),
    ("COc1cc2nccc(Oc3ccc(NC(=O)c4cn(C(C)C)c(C)c(-c5ccc(F)c(Cl)c5)c4=O)cc3F)c2nc1OC", "KDR (phospho-KDR, VEGF165-stimulated HUVEC cells) (Homo sapiens (Human))", "6.52 to 7.00"),
    ("COCc1nc(C)c(-c2ccc(F)cc2)c(O)c1C(=O)Nc1ccc(Oc2ccnc3cc(C)c(F)nc23)c(F)c1", "KDR (phospho-KDR, VEGF165-stimulated HUVEC cells) (Homo sapiens (Human))", "> 7.00"),
    ("CCOc1nc2c(Oc3ccc(NC(=O)c4cnc(C)c(-c5ccc(F)cc5C)c4O)cc3F)ccnc2cc1OC", "KDR (phospho-KDR, VEGF165-stimulated HUVEC cells) (Homo sapiens (Human))", "> 7.00"),
    ("Cc1c(-c2ccc(F)cc2)c(=O)c(C(=O)Nc2ccc(Oc3ccnc4cc(F)cnc34)c(F)c2)cn1C(C)C", "KDR (phospho-KDR, VEGF165-stimulated HUVEC cells) (Homo sapiens (Human))", "< 6.52"),
]

Each recorded value in this set is attributed to patent US12371428B2.
